meta.source: PubChem BioAssay (NCI)

System: COLO 205 colon
assay: NCI-60 one-dose screen, 48 h (100 = growth as untreated, 0 = no growth, -100 = all killed)
experimental setup: 10 µM unless noted
Compounds without any hit were thinned out: in the full panel of roughly 83,000, 20% have a hit. Active and inactive are the calls of the source. The calls were made as follows: active = growth percent below 10; inactive = the rest.
quantity kind: growth

Below, 2 compounds whose answers are already recorded.
{"columns": ["input smiles", "system name", "experimental result"],
 "data": [
  ["O=C(COc1cccc(/C=C2\\Oc3ccc4ccccc4c3C2=O)c1)c1ccc([N+](=O)[O-])cc1", "COLO 205 colon", "114% (inactive)"],
  ["COc1ccc2c(c1)[n+](=O)c(C(=O)/C=C/c1cc(OC)c(OC)c(OC)c1)c(C)n2[O-]", "COLO 205 colon", "58.9% (inactive)"]
]}

I'd like to know its growth. The compound in question is CC[C@@H](C)/C=C(C)/C=C/C(O)=C1\C(=O)N[C@@H](Cc2ccc(OC(=O)[C@@](OC)(c3ccccc3)C(F)(F)F)cc2)C1=O
118% (inactive)

====

Tested on: SK-OV-3 ovarian
assay: NCI-60 one-dose screen, 48 h
experimental setup: 10 µM unless noted
This is part of a sample that, as a whole, favours compounds with a hit. Of some 83,000 tested, about 20% had one in any assay. Activity calls are given as the source filed them. The calls were made as follows: active = growth percent below 10; inactive = the rest.
Would you mind answering with one of these outcomes? YES (active), NO (inactive)

The examples below pair each entry with its known result.
{"columns": ["molecule", "assigned label"],
 "data": [
  ["CN(C)CCCNc1nn2c(=O)c3ccccc3nc2c2ccccc12", "NO"],
  ["COc1cnc2c(c1)C(=O)c1c-2n(CCCN2CCC(O)CC2)c(=O)c2cc(F)ccc12", "YES"]
]}

Hey, what did the test say about CCOc1cc(/C=C/C(=O)CC(=O)/C=C/c2ccc(OC(=O)CNCCN(CC)CC)c(OCC)c2)ccc1OC(=O)CNCCN(CC)CC ?
NO

Hi team, can someone confirm the assay call for O=CN1N=C(c2ccc(Nc3ccnc4cc(Cl)ccc34)cc2)CC1c1ccc(Cl)cc1 (stereo not given) ?
YES

Look up the recorded call for CCn1cnc(C[C@H](NC(=O)[C@H](CCCCNC(=O)Nc2cc(C(F)(F)F)cc(C(F)(F)F)c2)NC(=O)Nc2cc(C(F)(F)F)cc(C(F)(F)F)c2)C(=O)OC)c1 in this test.
YES

In this assay, the call recorded for C[C@@H]1[C@H]2[C@H](C=C3[C@@H]4CC[C@H]5Cc6nc7c(nc6C[C@]5(C)[C@H]4C[C@@H](O)[C@@]32C)C[C@@H]2CC[C@H]3C4=C[C@@H]5O[C@@]6(CC[C@](C)(CO)O6)[C@@H](C)[C@@]5(O)[C@@]4(C)[C@H](O)C[C@@H]3[C@@]2(C)C7)O[C@]12CCC(C)(C)O2 was what?
YES

Please let me know the test result on file for O=C(Nc1nc2ccc(OC(F)(F)F)cc2s1)c1ccc(F)cc1 .
YES

Which outcome was assigned to O=C(/C=C/c1cccc(Nc2ccnc3cc(Cl)ccc23)c1)c1ccc(Cl)cc1 in this test?
NO

Please indicate how the test categorized CCc1nn2c(-c3ccc(Cl)cc3C)c(-c3cc(OC)c(OC)c(OC)c3)nc2s1 .
NO

Lab log entry: CC[C@H]1CN2CCc3cc(OC)c(OC)cc3C2C[C@@H]1CC1NCCc2cc(OC)c(OC)cc21 (stereo not given in full) — outcome as called in the assay?
YES

What call does the record list for OCCCc1n(Cc2ccc3ccccc3c2)c2ccccc2[n+]1Cc1ccc2ccccc2c1 ?
NO

Any idea what this test logged for N=C1c2nc3n(c2C(=O)c2nc4n(c21)CCCCC4)CCCCC3 ?
NO
